Numbers sourced from PubChem BioAssay (NCI).

Experiment: NCI Yeast Anticancer Drug Screen. Data for the cln2 rad14 strain (AID 165);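 note: 0% = growth equal to vehicle treated cultures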
Settings: S. cerevisiae cln2 rad14 strain, at 50.0 µM, hits give high values
The panel holds about 79,000 compounds, 15% with a hit somewhere; the sample as a whole holds those more often.
Here the recorded growth inhibition is given for each entry.
endpoint_label: growth inhibition (%)

>>> obs_value("CC1(C)NN=C([N+](=O)[O-])C1c1ccccc1 (stereo not drawn)")
-14.4
>>> obs_value("COC(=O)c1noc2c1CSC1=C2CS(=O)(=O)c2ccccc21")
14.8
>>> obs_value("O=[N+]([O-])c1ccc(N/N=C(/c2ccc(Cl)cc2)c2ccccc2Cl)c([N+](=O)[O-])c1")
-16.8
>>> obs_value("CN(C)NC(=O)Nc1ccc2ccccc2c1")
-41
>>> obs_value("CCC(=O)/C=C/c1ccccc1O")
17.4
>>> obs_value("CCOC(=O)C1CC1C#N (stereo not drawn)")
13.9
>>> obs_value("CC1CCCc2c1c1ccc3c(O)cccc3c1oc2=O (stereo not drawn)")
16.9
>>> obs_value("CC(=O)Oc1ccc2c(c1)CCC1C2CCC2(C)CC(OC(C)=O)CC12 (stereo not drawn)")
2.95
>>> obs_value("Cc1ccc2nc(N(C)C)cc(N(C)C)c2c1")
-100
>>> obs_value("CCN(CC)C(=O)c1cc([N+](=O)[O-])c(=O)n2c1[nH]c1ccccc12")
23.1
>>> obs_value("C[n+]1ccc(Nc2ccc(NC(=O)c3ccc(N)cc3)cc2)cc1")
-5.05
>>> obs_value("Cc1no[n+]([O-])c1NC(=O)OCc1ccccc1")
-37.8
>>> obs_value("CC1=C(C(=O)NC2CCCCC2)CC(C(=O)NC2CCCCC2)=C(C)N1")
-21.1
>>> obs_value("Cc1c(C(C)c2[nH]c3ccccc3c2C)[nH]c2ccccc12")
4.45
>>> obs_value("CC(C)Oc1ccc(N2C(=O)C(C)CNC2=S)cc1 (stereo not drawn)")
4.9
>>> obs_value("Cc1ccc(S(=O)(=O)/N=C2\\CCN(S(=O)(=O)c3ccccc3)N2S(=O)(=O)c2ccc(C)cc2)cc1")
9.85
>>> obs_value("O=S(=O)(O)c1cc(O)c2c(N=Nc3c(S(=O)(=O)O)cc4cc(S(=O)(=O)O)cc(N=Nc5c(S(=O)(=O)O)cc6cc(S(=O)(=O)O)cc(O)c6c5O)c4c3O)cc(S(=O)(=O)O)cc2c1")
-14.8
>>> obs_value("N#CC1CNC(N)NC1N (stereo not drawn)")
-7.95
>>> obs_value("CC(C)(C)N[P+](Cc1ccccc1)(NC(C)(C)C)c1ccccc1")
-9.7
>>> obs_value("O=C(NCCc1c[nH]c2ccccc12)C1CC1")
-32.2
>>> obs_value("C/C=C(\\C)c1cc(=O)c2c(C)cc3c(c2o1)C(=O)c1c(OC)cccc1C3=O")
-4.65
>>> obs_value("C/C(Cc1ccccc1)=N\\NC(N)=S")
-12.7
>>> obs_value("COc1ccc(CNc2cc(OC)c(OC)c(OC)c2)cc1")
9.25
